# tested target: human FLT-3 (Arg571-Ser993) (Homo sapiens)
# Construct: human FLT-3 (Arg571-Ser993); GST (N); purchased Cell Signaling Technology; host or cells: baculovirus expression system
# Sequence (P36888 571-993): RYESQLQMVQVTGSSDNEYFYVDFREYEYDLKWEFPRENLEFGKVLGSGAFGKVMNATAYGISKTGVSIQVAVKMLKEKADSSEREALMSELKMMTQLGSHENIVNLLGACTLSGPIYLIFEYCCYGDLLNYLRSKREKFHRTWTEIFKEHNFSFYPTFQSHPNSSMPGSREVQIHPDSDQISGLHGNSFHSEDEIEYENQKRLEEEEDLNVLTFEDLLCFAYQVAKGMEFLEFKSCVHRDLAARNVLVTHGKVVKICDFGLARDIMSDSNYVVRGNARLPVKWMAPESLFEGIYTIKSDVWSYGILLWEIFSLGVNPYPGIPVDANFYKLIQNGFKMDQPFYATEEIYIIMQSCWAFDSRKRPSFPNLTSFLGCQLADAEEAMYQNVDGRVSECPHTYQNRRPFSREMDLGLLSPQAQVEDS
# test: FLT-3 kinase assay (HTScan kit, DELFIA)
# Format: biochemical
# condition info: compound at 1 μM; read-out: FLT-3 1 μM, % of inhibition relative to control
Output yes (1) for inhibition at 1 µM not less than 30%; output no (0) otherwise.

Before answering, review these 5 worked examples.
- compound: "COc1ccc(CN2C(=O)/C(=C/c3cc(C)c4cc(C(C)C)ccc(C)c3-4)c3ccccc32)cc1 [Compound 73]"
  category label: "yes (1)"
- compound: "O=C1Nc2ccc(F)cc2/C1=C\\c1cc(Br)c2cccccc1-2 [Compound 51]"
  category label: "yes (1)"
- compound: "Cc1cc(C=C2C(=O)Nc3ccc(F)cc32)c2ccccc(OCCCN3CCN(C)CC3)c1-2 [Compound 96]"
  category label: "yes (1)"
- compound: "Cc1cc(C=C2C(=O)Nc3cc(F)ccc32)c2ccccc(OCCCN(C)C)c1-2 [Compound 91]"
  category label: "yes (1)"
- compound: "Nc1cc2cccccc-2c1C=C1C(=O)Nc2ccc(F)cc21 [Compound 64]"
  category label: "yes (1)"

// query Kindly determine if inhibition at 1 µM recorded for Cc1[nH]c(/C=C2\C(=O)Nc3ccc(F)cc32)c2ccc(=O)ccc12 [Compound 63] is above or exactly 30%.
// result yes (1)

// query Kindly determine if inhibition at 1 µM recorded for CN(C)CCNC(=O)c1cc(/C=C2/C(=O)Nc3ccc(F)cc32)c2cccccc1-2 [Compound 67] is above or exactly 30%.
// result no (0)

// query Kindly determine if inhibition at 1 µM recorded for COc1ccc2c(c1)/C(=C\c1ccc3cccccc1-3)C(=O)N2 [Compound 43] is above or exactly 30%.
// result no (0)

// query Kindly determine if inhibition at 1 µM recorded for O=C1Nc2ccc(-c3ccccc3)cc2/C1=C/c1ccc2cccccc1-2 [Compound 34] is above or exactly 30%.
// result no (0)

* * *

# tested target: human VEGFR-2 (Val789-Val1356) (Homo sapiens)
# Construct: human VEGFR-2 (Val789-Val1356); GST (N); purchased Cell Signaling Technology; host or cells: baculovirus expression system
# Sequence (P35968 789-1356): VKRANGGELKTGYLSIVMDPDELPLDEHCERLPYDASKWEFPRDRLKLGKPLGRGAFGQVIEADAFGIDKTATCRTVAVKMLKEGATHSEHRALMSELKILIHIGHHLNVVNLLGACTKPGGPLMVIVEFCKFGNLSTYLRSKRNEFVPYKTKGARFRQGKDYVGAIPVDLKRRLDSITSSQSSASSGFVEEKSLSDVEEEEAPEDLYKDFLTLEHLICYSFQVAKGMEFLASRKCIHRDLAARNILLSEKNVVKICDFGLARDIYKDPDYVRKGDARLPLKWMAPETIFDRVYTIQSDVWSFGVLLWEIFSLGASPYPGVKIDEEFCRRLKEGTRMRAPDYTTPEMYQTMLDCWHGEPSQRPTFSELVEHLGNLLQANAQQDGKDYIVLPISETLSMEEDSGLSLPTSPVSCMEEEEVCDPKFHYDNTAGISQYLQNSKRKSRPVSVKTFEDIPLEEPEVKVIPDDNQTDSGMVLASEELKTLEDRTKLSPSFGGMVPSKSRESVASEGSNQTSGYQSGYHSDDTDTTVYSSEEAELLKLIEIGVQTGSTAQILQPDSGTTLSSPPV
# test: KDR kinase assay (HTScan VEGFR-2 kit, DELFIA)
# Format: biochemical
# condition info: compound at 0.1 μM; read-out: KDR 0.1 μM, % of inhibition relative to control
Output Condition met for inhibition at 0.1 µM not less than 30%; output Condition not met otherwise.

Before answering, review these 3 worked examples.
- molecule: "Cc1cc(C=C2C(=O)Nc3ccc(F)cc32)c2ccccc(OCCCN3CCOCC3)c1-2 (mixture of isomers) [Compound 87]"
  category label: "Condition not met"
- molecule: "O=C1Nc2ccc(Br)cc2/C1=C/c1ccc2cccccc1-2 [Compound 6]"
  category label: "Condition not met"
- molecule: "O=C1Nc2ccc(F)cc2/C1=C\\c1ccccc2cccc1-2 [Compound 52]"
  category label: "Condition not met"

// query Kindly determine if inhibition at 0.1 µM recorded for COC(=O)C1C2=CC=CC=C(OC)C2=C(/C=C2\C(=O)Nc3ccc(F)cc32)C1OC (stereo not drawn) [Compound 69] is above or exactly 30%.
// result Condition met

// query Kindly determine if inhibition at 0.1 µM recorded for Cc1cc(/C=C2\C(=O)Nc3ccc(F)cc32)c2ccccc(OCCCN(C)C)c1-2 [Compound 95] is above or exactly 30%.
// result Condition met

// query Kindly determine if inhibition at 0.1 µM recorded for O=C1Nc2ccc(F)cc2/C1=C/c1cc(F)c2cccccc1-2 [Compound 60] is above or exactly 30%.
// result Condition met

// query Kindly determine if inhibition at 0.1 µM recorded for O=C1Nc2ccc(F)cc2/C1=C\c1ccc2cccc-2cc1 [Compound 53] is above or exactly 30%.
// result Condition not met

// query Kindly determine if inhibition at 0.1 µM recorded for Cc1cc(/C=C2/C(=O)Nc3ccccc32)c2c(C)ccc(C(C)C)cc1-2 [Compound 12] is above or exactly 30%.
// result Condition not met

// query Kindly determine if inhibition at 0.1 µM recorded for O=C1Nc2ccc(F)cc2/C1=C/c1cc2cccccc-2c1 [Compound 41] is above or exactly 30%.
// result Condition not met

// query Kindly determine if inhibition at 0.1 µM recorded for Cc1cc(C)c2ccc(/C=C3/C(=O)N(Cc4ccccc4)c4ccccc43)c-2c(C)c1 [Compound 10] is above or exactly 30%.
// result Condition not met

// query Kindly determine if inhibition at 0.1 µM recorded for Cc1cc(C)c2ccc(/C=C3/C(=O)Nc4ccccc43)c-2c(C)c1 [Compound 9] is above or exactly 30%.
// result Condition not met
